- Tested on: PC12 cells expressing G93A SOD1-YFP
- Type: cell-based
OBSERVED_PROPERTY: activity in cytotoxicity protection assay

# input Requested field: activity in cytotoxicity protection assay. Item: `O=C1CC(=O)N(C2CCCCC2)C(=O)N1`
# output no activity

# input Input `CCCCN1C(=O)CC(=O)NC1=O`
# output no activity

====

- System: PC12 cells expressing G93A SOD1-YFP
- Assay type: cell-based
OBSERVED_PROPERTY: activity in cytotoxicity protection assay

# input Requested field: activity in cytotoxicity protection assay. Item: `O=C1C(=O)N(C2CCCCC2)C(=O)N1C1CCCCC1`
# output none was active

# input Input `O=c1cc(Cl)n(CCc2ccccc2)c(=O)n1CCc1ccccc1`
# output inactive

# input Input `O=C1C(=O)N(CCc2ccccc2)C(=O)N1CCc1ccccc1`
# output none was active

# input Input `COc1cc(=O)n(CCc2ccccc2)c(=O)n1CCc1ccccc1`
# output inactive

Consider the additional compound presented here.
# input Requested field: activity in cytotoxicity protection assay. Item: `O=C1CCC(=O)N(CCc2ccccc2)C(=O)N1CCc1ccccc1`
# output none was active
